System: GTPase KRas (Homo sapiens), P01116 [G12D]
Sequence (P01116 whole entry G12D, looked up): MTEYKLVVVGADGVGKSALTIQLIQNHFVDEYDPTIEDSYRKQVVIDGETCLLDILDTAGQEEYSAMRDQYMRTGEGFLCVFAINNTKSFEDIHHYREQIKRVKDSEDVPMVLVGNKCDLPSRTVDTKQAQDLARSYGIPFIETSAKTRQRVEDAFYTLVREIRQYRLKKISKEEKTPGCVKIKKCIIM
Experiment: Binding affinity to biotinylated KRAS G12D mutant (unknown origin) assessed as Kon incubated for 120 mins by SPR analysis
Positions of bridges follow the written chain, without caps; N, C: chain ends. Non-standard residues stand in square brackets, D forms with d. Residues, ends and D or L forms follow the SMILES beside them. *: point of attachment. hPhe(3-Cl-4-CF3) = N[C@@H](CCc1ccc(C(F)(F)F)c(Cl)c1)C(=O)O; NMeCha = CN[C@@H](CC1CCCCC1)C(=O)O; NMeChg = CN[C@H](C(=O)O)C1CCCCC1; NMeT = CN[C@H](C(=O)O)[C@@H](C)O; NMeD = CN[C@@H](CC(=O)O)C(=O)O; NMeNva = CCC[C@H](NC)C(=O)O; Piperidide = C1CCN(*)CC1; Ac5c = NC1(C(=O)O)CCCC1; Sar = CNCC(=O)O
readout kind: K

Exam item: Request: K, test system GTPase KRas (Homo sapiens), P01116 [G12D], entry CC[C@H](C)[C@@H]1NC(=O)[C@H]([C@@H](C)O)N(C)C(=O)C[C@@H](C(=O)N2CCCCC2)N(C)C(=O)[C@H](C2CCCCC2)N(C)C(=O)C2(CCCC2)NC(=O)[C@@H]2CCCN2C(=O)[C@H](CCc2ccc(C(F)(F)F)c(Cl)c2)NC(=O)CN(C)C(=O)[C@H](CC2CCCCC2)N(C)C(=O)CN(C)C(=O)CN(C)C1=O ([NMeT]I[Sar][Sar][NMeCha][Sar][hPhe(3-Cl-4-CF3)]P[Ac5c][NMeChg][NMeD]-Piperidide; lactam N-11)
Marked response: 1.2 10^6/Ms

Further cases:
Exam item: API: value(readout=K, system=GTPase KRas (Homo sapiens), P01116 [G12D]) for record CCC[C@H]1C(=O)N[C@@H]([C@@H](C)CC)C(=O)N(C)CC(=O)N(C)CC(=O)N(C)[C@@H](CC2CCCCC2)C(=O)N(C)CC(=O)N[C@@H](CCc2ccc(C(F)(F)F)c(Cl)c2)C(=O)N2CCC[C@H]2C(=O)NC2(CCCC2)C(=O)N(C)[C@@H](C2CCCCC2)C(=O)N(C)[C@H](C(=O)N2CCCCC2)CC(=O)N1C ([NMeNva]I[Sar][Sar][NMeCha][Sar][hPhe(3-Cl-4-CF3)]P[Ac5c][NMeChg][NMeD]-Piperidide; lactam N-11)
Marked response: 3.1 10^5/Ms
